The reader will find reported concentration at 15 min values listed item by item below.
assay.name: In vivo pharmacokinetics, plasma and brain levels
Design: species or system CD1 mice
study.conditions: male, CD1, mouse, plasma, intravenous, 10 mg/kg
A number alone suffices; assume nM.

* CC(C)C[C@H]1C(=O)N2CCC[C@H]2[C@]2(O)O[C@](NC(=O)[C@@H]3C=C4c5cccc6[nH]c(Br)c(c56)C[C@H]4[N+](C)(C)C3)(C(C)C)C(=O)N12.[I-] | 4260

State its concentration at 15 min for this compound: `CC(C)C[C@H]1C(=O)N2CCC[C@H]2[C@]2(O)O[C@](NC(=O)[C@@H]3C=C4c5cccc6[nH]c(Br)c(c56)C[C@H]4N(C)C3)(C(C)C)C(=O)N12`
1340

====

Here's a batch of compounds along with measured Ki for human D3R (Homo sapiens).
# output: bare number, implied unit nM

- CC(C)C[C@H]1C(=O)N2CCC[C@H]2[C@]2(O)O[C@](NC(=O)[C@@H]3C=C4c5cccc6[nH]c(Br)c(c56)C[C@H]4[N+](C)(C)C3)(C(C)C)C(=O)N12.[I-] [AB01–60]: 17.5

Lab note: next compound to report on.
Answer with the recorded Ki of CC(C)C[C@H]1C(=O)N2CCC[C@H]2[C@]2(O)O[C@](NC(=O)[C@@H]3C=C4c5cccc6[nH]c(Br)c(c56)C[C@H]4N(C)C3)(C(C)C)C(=O)N12 [Bromocriptine, bromocriptine] only.
2.05

====

# Kp at 0.25 h listing for each entry below
assay.name: In vivo pharmacokinetics, plasma and brain levels
Set-up: species or system CD1 mice
study.conditions: male, CD1, mouse, brain, iv, 10 mg/kg
Response field accepts a number only; no unit should be typed.

- CC(C)C[C@H]1C(=O)N2CCC[C@H]2[C@]2(O)O[C@](NC(=O)[C@@H]3C=C4c5cccc6[nH]c(Br)c(c56)C[C@H]4N(C)C3)(C(C)C)C(=O)N12: 0.74

Pending molecule:
Provide Kp at 0.25 h value for the following molecule: `CC(C)C[C@H]1C(=O)N2CCC[C@H]2[C@]2(O)O[C@](NC(=O)[C@@H]3C=C4c5cccc6[nH]c(Br)c(c56)C[C@H]4[N+](C)(C)C3)(C(C)C)C(=O)N12.[I-]`
0.3

====

Let's go through some recorded Ki values for human D2R (Homo sapiens) together.
Express it in nM; write the number only.

* CC(C)C[C@H]1C(=O)N2CCC[C@H]2[C@]2(O)O[C@](NC(=O)[C@@H]3C=C4c5cccc6[nH]c(Br)c(c56)C[C@H]4[N+](C)(C)C3)(C(C)C)C(=O)N12.[I-] | 3.14

Turning to the following compound.
Please report Ki with human D2R (Homo sapiens) for item `CC(C)C[C@H]1C(=O)N2CCC[C@H]2[C@]2(O)O[C@](NC(=O)[C@@H]3C=C4c5cccc6[nH]c(Br)c(c56)C[C@H]4N(C)C3)(C(C)C)C(=O)N12` .
Sequence (P14416 whole entry): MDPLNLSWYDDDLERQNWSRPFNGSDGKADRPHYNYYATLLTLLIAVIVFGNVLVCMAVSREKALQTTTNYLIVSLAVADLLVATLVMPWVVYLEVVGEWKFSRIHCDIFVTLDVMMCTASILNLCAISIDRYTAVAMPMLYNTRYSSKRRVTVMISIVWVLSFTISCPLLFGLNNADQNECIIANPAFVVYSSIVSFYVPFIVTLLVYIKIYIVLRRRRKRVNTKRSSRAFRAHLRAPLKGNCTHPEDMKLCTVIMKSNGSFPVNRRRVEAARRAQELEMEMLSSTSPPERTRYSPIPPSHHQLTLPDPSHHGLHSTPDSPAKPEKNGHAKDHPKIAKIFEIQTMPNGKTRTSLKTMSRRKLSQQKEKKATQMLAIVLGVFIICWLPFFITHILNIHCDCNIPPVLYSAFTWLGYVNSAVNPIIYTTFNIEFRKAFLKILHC
0.59

====

assay.name: In vivo pharmacokinetics, plasma and brain levels
Design: species or system CD1 mice
study.conditions: male, CD1, mouse, brain, iv, 10 mg/kg
Measured Kp at 1 h by item
Answer with the value's number alone.

• CC(C)C[C@H]1C(=O)N2CCC[C@H]2[C@]2(O)O[C@](NC(=O)[C@@H]3C=C4c5cccc6[nH]c(Br)c(c56)C[C@H]4[N+](C)(C)C3)(C(C)C)C(=O)N12.[I-] [AB01–60] = 0.51

Field: next compound
Supply reported Kp at 1 h belonging to this compound: CC(C)C[C@H]1C(=O)N2CCC[C@H]2[C@]2(O)O[C@](NC(=O)[C@@H]3C=C4c5cccc6[nH]c(Br)c(c56)C[C@H]4N(C)C3)(C(C)C)C(=O)N12 [Bromocriptine, bromocriptine]
0.45

Cited source for all entries: paper PMC10962703
